Data provenance: ChEMBL document CHEMBL3351445

# TEST NAME: Half life in human plasma by LC-MS/MS analysis
# Assay type: ADME, cell-free
MEASURED PARAMETER: half-life

For the compound "COc1cccc(S(=O)(=O)N2CCCc3cc(Cc4cccnc4)ccc32)c1" , what half-life is on record?
> 2.5 h

---

# TARGET SYSTEM: CYP17 (Homo sapiens)
# Sequence (P05093 whole entry): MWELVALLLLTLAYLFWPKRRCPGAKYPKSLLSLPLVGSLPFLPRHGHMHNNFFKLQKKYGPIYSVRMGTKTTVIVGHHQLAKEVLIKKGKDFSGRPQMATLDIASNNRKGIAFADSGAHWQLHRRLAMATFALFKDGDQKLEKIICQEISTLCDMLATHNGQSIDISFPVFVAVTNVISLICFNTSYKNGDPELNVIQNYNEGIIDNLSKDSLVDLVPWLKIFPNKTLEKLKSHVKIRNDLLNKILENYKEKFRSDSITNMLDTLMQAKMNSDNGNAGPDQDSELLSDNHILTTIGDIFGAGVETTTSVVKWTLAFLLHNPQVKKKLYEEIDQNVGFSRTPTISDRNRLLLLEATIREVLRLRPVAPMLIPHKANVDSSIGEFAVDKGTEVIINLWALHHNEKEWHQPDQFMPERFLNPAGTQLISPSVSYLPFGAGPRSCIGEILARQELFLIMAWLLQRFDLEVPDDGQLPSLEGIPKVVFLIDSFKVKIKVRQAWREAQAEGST
# TEST NAME: Inhibition of human CYP17 expressed in Escherichia coli using progesterone as substrate at 2 uM
# MEASUREMENT CONTEXT: probe progesterone
MEASURED PARAMETER: inhibition at 2 µM (%)
Form entry: value (%) — number only.

Record excerpt, results attached:
{"columns": ["COMPOUND STRUCTURE STRING", "MEASURED PARAMETER", "READOUT NUMBER"],
 "data": [
  ["Cc1cccc(S(=O)(=O)N2CCCc3cc(-c4cccnc4)ccc32)c1", "inhibition at 2 µM", 9],
  ["COc1cccc(S(=O)(=O)N2CCCc3cc(Cc4ccncc4)ccc32)c1", "inhibition at 2 µM", 14],
  ["COc1cccc(S(=O)(=O)N2CCCc3cc(Cc4cccnc4)ccc32)c1", "inhibition at 2 µM", 9]
]}

Next item in the queue.
For the compound "COc1cccc(S(=O)(=O)N2CCCc3cc(-c4cccnc4)ccc32)c1" , what inhibition at 2 µM is on record?
11
